All figures here come from patent US11623924B2.

SYSTEM_TESTED: NL20 human bronchial epithelial cells expressing human Z-AAT (Homo sapiens, UniProt P01009, E366K)
Construct: expressed in transfected cells; host or cells: NL20 human bronchial epithelial cells (NL20-SI line, doxycycline added)
Sequence (P01009 25-418 E366K): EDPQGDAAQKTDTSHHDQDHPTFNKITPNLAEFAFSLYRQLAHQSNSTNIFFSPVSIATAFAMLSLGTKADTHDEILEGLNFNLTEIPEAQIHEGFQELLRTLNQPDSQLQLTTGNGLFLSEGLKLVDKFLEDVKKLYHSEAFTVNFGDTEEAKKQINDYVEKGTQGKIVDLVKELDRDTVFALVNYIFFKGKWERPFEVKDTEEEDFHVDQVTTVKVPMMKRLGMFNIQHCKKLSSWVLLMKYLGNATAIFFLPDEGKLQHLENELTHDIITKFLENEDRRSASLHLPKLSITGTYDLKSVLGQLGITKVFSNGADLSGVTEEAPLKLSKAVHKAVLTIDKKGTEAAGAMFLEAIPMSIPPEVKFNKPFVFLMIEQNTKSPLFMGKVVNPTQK
METHOD: AAT Function Assay (MSD Assay NL20-SI Cell Line)
Assay type: cell-based
RUN_CONDITIONS: functionally active AAT (AAT-hNE complex) in supernatant of NL20 cells expressing human Z-AAT; read-out: NL20 Func. (EC50)
# EC50 per record follows

Here are 4 compounds together with their reported answers.
{"COMPOUND": "Cc1cc(-n2c(C3CCOCC3)c([C@H]3C[C@H](CC(=O)O)C3)c3cc4[nH]ncc4cc32)ccc1F (single isomer, unassigned) [Compound 94]", "RECORDED_RESULT": "1.16 to 3 µM"}
{"COMPOUND": "[H][C@]1(C(=O)O)C[C@]2(C1)C[C@@]([H])(c1c(C3CCOCC3)n(-c3ccc(F)c(C)c3)c3cc4cn[nH]c4cc31)C2 (single isomer, unassigned) [Compound 91]", "RECORDED_RESULT": "< 1.16 µM"}
{"COMPOUND": "O=C(O)C1CCC(Cc2c(C3CCOCC3)n(-c3ccc(F)c(Cl)c3)c3cc4cn[nH]c4cc23)CC1 (mixture of isomers) [Compound 83]", "RECORDED_RESULT": "1.16 to 3 µM"}
{"COMPOUND": "Cc1cc(-n2c(C(C)C)c(C(=O)NC3COC3)c3cc4[nH]ncc4cc32)ccc1F [Compound 7]", "RECORDED_RESULT": "> 3 µM"}

Ask: Return reported EC50. Input compound: Cc1n[nH]c2cc3c(C4CC5(CC(C(=O)O)C5)C4)c(C4CCOCC4)n(-c4ccc(F)c(F)c4)c3cc12 (racemic) [Compound 129]
Result: > 3 µM

Ask: Return reported EC50. Input compound: Cc1cc(-n2c(C(C)C)c(I)c3cc4[nH]nc(F)c4cc32)ccc1F [Compound 46]
Result: > 3 µM

Ask: Return reported EC50. Input compound: N#CCCCc1c(C2CCOCC2)n(-c2ccc(F)cc2)c2cc3cn[nH]c3cc12 [Compound 148]
Result: 1.16 to 3 µM
